Please respond with reported IC50 at 48 h for every item in the list.
# Protocol text: In vitro human cytotoxicity assay (resazurin)
# Stated conditions: human, HeLa cells
Hi, when you answer, please include the unit after the number. Thanks!

Guide cases for IC50 at 48 h, answers given:
1) CC[C@H]1CN2CCc3cc(OC)c(OC)cc3[C@@H]2C[C@@H]1C[C@H]1NCCc2cc(OC)c(OC)cc21 [Emetine, reference compound]: 0.013 µM
2) O=C1CC(c2ccc(O)c(O)c2)Oc2cc(O)cc(O)c21 (stereo not drawn) [RUBi014]: 32.9 µM

Let's switch to this molecule now.
Note down IC50 at 48 h recorded for CC1=NN(c2ccc(C)cc2C)C(=O)/C1=C/NNC(=O)c1cccc([N+](=O)[O-])c1 [RUBi004] 23.6 µM
